Where do these numbers come from? They come from paper PMC9764071.

# TARGET_ENTITY: PD-1/PD-L1 interaction (Homo sapiens, UniProt Q9NZQ7)
# Sequence (Q9NZQ7 19-238 limits assumed): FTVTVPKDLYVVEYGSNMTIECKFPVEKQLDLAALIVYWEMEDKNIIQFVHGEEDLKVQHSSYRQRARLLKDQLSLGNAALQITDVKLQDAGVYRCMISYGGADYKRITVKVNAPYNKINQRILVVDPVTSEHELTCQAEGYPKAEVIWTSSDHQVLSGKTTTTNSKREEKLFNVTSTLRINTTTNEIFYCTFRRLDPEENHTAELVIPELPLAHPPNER
# PROTOCOL: TR-FRET assay of PD-1/PD-L1 interaction inhibition
RECORDED_METRIC: pIC50
Note on units: pIC50 is unitless, being -log10 of a concentration expressed in mol/L.

Any idea what its pIC50 is? The compound is Cc1c(-c2ccccc2)cccc1N1C(=O)c2cc(CN[C@@H](C)C(=O)O)c(OCc3cccc(C#N)c3)cc2C1=O
7.94

Now the compound Cc1c(-c2ccccc2)cccc1N1C(=O)c2cc(CN[C@@H](C)C(=O)OC(C)(C)C)c(OCc3cccc(C#N)c3)cc2C1=O
5.78

Now the compound Cc1c(-c2ccccc2)cccc1N1C(=O)c2ccc(OCc3cccc(C#N)c3)c(CNC3CCOCC3)c2C1=O
5.94

Now the compound Cc1c(-c2ccccc2)cccc1N1C(=O)c2cc(CNCCO)c(OCc3ccc(C#N)cc3)cc2C1=O
6.82

Now the compound Cc1c(-c2ccccc2)cccc1N1C(=O)c2cc(CN[C@@H](CO)C(=O)O)c(OCc3cccc(C#N)c3)cc2C1=O
7.85

Now the compound Cc1c(-c2ccccc2)cccc1N1C(=O)c2cc(CNCCN(C)C)c(OCc3cccc(C#N)c3)cc2C1=O
6.72

---

# TARGET_ENTITY: PD-1/PD-L1 interaction (Homo sapiens, UniProt Q9NZQ7)
# PROTOCOL: TR-FRET assay of PD-1/PD-L1 interaction inhibition
Consider the reported IC50 of an entry and match it to a band in bottom bin (below 60 nM), middle bin (60 nM to below 500 nM), top bin (500 nM or more)

Given Cc1c(-c2ccccc2)cccc1N1C(=O)c2cc(CNCC(=O)O)c(OCc3cccc(C#N)c3)cc2C1=O [P33] , name the class its IC50 places it in.
bottom bin

Now the molecule Cc1c(-c2ccccc2)cccc1N1C(=O)c2cc(CN[C@@H](Cc3ccccc3)C(=O)O)c(OCc3cccc(C#N)c3)cc2C1=O [P41]
top bin

Now the molecule COC(=O)CNCc1cc2c(cc1OCc1cccc(C#N)c1)C(=O)N(c1cccc(-c3ccccc3)c1C)C2=O [P31]
top bin

Now the molecule Cc1c(-c2ccccc2)cccc1N1C(=O)c2cc(CNCCO)c(OCc3ccccc3C#N)cc2C1=O [P3]
middle bin

Now the molecule Cc1c(-c2ccccc2)cccc1N1C(=O)c2cc(CN3CCC[C@H]3C(N)=O)c(OCc3cccc(C#N)c3)cc2C1=O [P26]
top bin

Now the molecule Cc1c(-c2ccccc2)cccc1N1C(=O)c2cc(CN(C)CCO)c(OCc3cccc(C#N)c3)cc2C1=O [P19]
middle bin

Now the molecule Cc1c(-c2ccccc2)cccc1N1C(=O)c2cc(CNCCO)c(OCc3ccccc3)cc2C1=O [P5]
middle bin

Now the molecule N#Cc1cccc(COc2cc3c(cc2CN2CCC[C@H]2C(=O)O)C(=O)N(c2cccc(-c4ccccc4)c2Cl)C3=O)c1 [P14]
bottom bin

Now the molecule Cc1c(-c2ccccc2)cccc1N1C(=O)c2cc(CN3CCC[C@H]3C(=O)O)c(OCc3cccc(C#N)c3)cc2C1=O [P8]
bottom bin

Now the molecule N#Cc1cccc(COc2cc3c(cc2CN2CCCC[C@H]2C(=O)O)C(=O)N(c2cccc(-c4ccccc4)c2C#N)C3=O)c1 [P12]
middle bin

Now the molecule Cc1c(-c2ccccc2)cccc1N1C(=O)c2cc(CN[C@@H](CO)C(=O)OC(C)(C)C)c(OCc3cccc(C#N)c3)cc2C1=O [P29]
top bin

Now the molecule Cc1c(-c2ccccc2)cccc1N1C(=O)c2cc(CN(C)CC(=O)O)c(OCc3cccc(C#N)c3)cc2C1=O [P35]
bottom bin

Now the molecule Cc1c(-c2ccccc2)cccc1N1C(=O)c2cc(CN[C@@H](Cc3ccccc3)C(=O)OC(C)(C)C)c(OCc3cccc(C#N)c3)cc2C1=O [P40]
top bin

Now the molecule Cc1c(-c2ccccc2)cccc1N1C(=O)c2cc(CN3CC(O)C3)c(OCc3cccc(C#N)c3)cc2C1=O [P25]
middle bin
